Values compiled from patent US8546381B2.

- assay.system: human recombinant adrenergic α2B receptor (Homo sapiens)
- Construct: expressed in transfected cells; host or cells: CHO-K1 cells
- Sequence (P18089 whole entry): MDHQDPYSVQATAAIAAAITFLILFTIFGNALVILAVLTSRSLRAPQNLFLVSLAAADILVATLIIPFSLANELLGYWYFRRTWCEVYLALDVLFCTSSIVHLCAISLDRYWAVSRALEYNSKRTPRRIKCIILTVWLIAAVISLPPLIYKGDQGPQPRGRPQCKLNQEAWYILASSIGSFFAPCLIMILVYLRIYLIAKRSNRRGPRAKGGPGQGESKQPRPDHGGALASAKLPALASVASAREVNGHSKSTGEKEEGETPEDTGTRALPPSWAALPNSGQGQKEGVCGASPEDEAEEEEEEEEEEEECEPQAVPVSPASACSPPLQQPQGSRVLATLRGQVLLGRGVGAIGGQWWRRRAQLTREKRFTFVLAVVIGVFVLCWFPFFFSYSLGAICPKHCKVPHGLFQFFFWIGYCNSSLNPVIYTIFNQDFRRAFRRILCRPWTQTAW
- assay.overview: Adrenergic α2B radioligand binding ([3H]Rauwolscine)
- settings: 1 μM; read-out: Adrenergic α2B, inhibition of ligand binding (1 μM)
Outcome: satisfied for inhibition at 1 µM of at least 80%; not satisfied for anything lower.

Completed entries (count: 8):
- Cc1cncc(CCn2c3c(c4cc(C)ccc42)C2CCC(C3)N2C)c1 (stereo not drawn): not satisfied
- CN1C2CCC1c1c(n(CCc3ccc(F)cc3)c3ccc(Cl)cc13)C2 (stereo not drawn): satisfied
- Cc1cncc(CCn2c3c(c4cc(Cl)ccc42)C2CCC(C3)N2C)c1 (stereo not drawn): not satisfied
- CN1C2CCC1c1c(n(C#Cc3ccc(F)cc3)c3ccc(Cl)cc13)C2 (stereo not drawn): satisfied
- Cc1ccc2c(c1)c1c(n2CC(=O)N2CCCCC2)CC2CCC1N2C (stereo not drawn): not satisfied
- Cc1ncc(CCn2c3c(c4cc(Cl)ccc42)C2CCC(C3)N2C)cn1 (stereo not drawn): not satisfied
- Cc1ccc2c(c1)c1c(n2CCc2cccnc2)CC2CCC1N2C (stereo not drawn): satisfied
- CN1C2CCC1c1c(n(CC(=O)N3CCOCC3)c3ccc(Cl)cc13)C2 (stereo not drawn): not satisfied

--- query ---
Query :: Does the molecule Cc1ccc2c(c1)c1c(n2C(=O)Cc2ccc(Cl)cc2)CC2CCC1N2C (stereo not drawn) have recorded inhibition at 1 µM that is 80% or more?
Result :: satisfied

###

- assay.system: human recombinant serotonin (5-Hydroxytryptamine) 5-HT2A receptor (Homo sapiens)
- Construct: expressed in transfected cells; host or cells: CHO-K1 cells
- Sequence (P28223 whole entry): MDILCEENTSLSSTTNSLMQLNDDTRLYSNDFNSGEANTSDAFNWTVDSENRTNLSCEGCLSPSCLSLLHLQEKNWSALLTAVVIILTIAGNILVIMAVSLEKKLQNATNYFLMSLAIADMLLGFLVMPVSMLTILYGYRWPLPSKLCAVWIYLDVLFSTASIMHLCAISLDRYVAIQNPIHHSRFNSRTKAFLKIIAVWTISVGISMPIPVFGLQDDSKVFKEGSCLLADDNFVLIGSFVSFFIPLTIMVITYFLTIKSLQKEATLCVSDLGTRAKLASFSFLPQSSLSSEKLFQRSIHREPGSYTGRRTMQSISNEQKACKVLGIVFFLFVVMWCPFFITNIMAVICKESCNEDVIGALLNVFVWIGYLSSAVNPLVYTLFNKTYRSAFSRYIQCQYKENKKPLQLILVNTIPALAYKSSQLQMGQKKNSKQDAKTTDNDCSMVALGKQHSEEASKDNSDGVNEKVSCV
- assay.overview: Serotonin 5-HT2A radioligand binding ([3H]Ketanserin)
- settings: read-out: Serotonin 5-HT2A, inhibition of ligand binding (1 μM)
Overview of recorded inhibition at 1 µM for various compounds
# do not omit the unit; it follows the number

For orientation, consider the following solved cases.
• C/C(=C\n1c2c(c3cc(Cl)ccc31)C1CCC(C2)N1C)c1ccc(F)cc1 (stereo not shown) = 97%
• CN1C2CCC1c1c(n(CC(=O)c3ccccc3)c3ccc(Cl)cc13)C2 (stereo not shown) = 83%
• Cc1ccc(CCn2c3c(c4ccccc42)[C@@H]2CC[C@H](C3)N2C)cn1 = 11%
• Cc1ncc(CCn2c3c(c4cc(Cl)ccc42)C2CCC(C3)N2C)cn1 (stereo not shown) = -16%
• Cc1ccc2c(c1)c1c(n2CC(=O)N2CCCCC2)CC2CCC1N2C (stereo not shown) = -12%

Field inhibition at 1 µM (human recombinant serotonin (5-Hydroxytryptamine) 5-HT2A receptor (Homo sapiens)), entry CN1C2CCC1c1c(n(CCC(=O)N3CCNCC3)c3ccc(Cl)cc13)C2 (stereo not shown) : 15%

Readout inhibition at 1 µM for `C/C(=C/n1c2c(c3ccccc31)[C@@H]1CC[C@H](C2)N1C)c1ccc(F)cc1` , test system human recombinant serotonin (5-Hydroxytryptamine) 5-HT2A receptor (Homo sapiens), was 98%

Short answer on human recombinant serotonin (5-Hydroxytryptamine) 5-HT2A receptor (Homo sapiens) for CN1C2CCC1c1c(n(CCC(N)=O)c3ccc(Cl)cc13)C2 (stereo not shown) , inhibition at 1 µM: -9%

Short answer on human recombinant serotonin (5-Hydroxytryptamine) 5-HT2A receptor (Homo sapiens) for CN1C2CCC1c1c(n(CCCc3ccc(Cl)cc3)c3ccc(Cl)cc13)C2 (stereo not shown) , inhibition at 1 µM: 87%

Test item `CN1[C@@H]2CC[C@H]1c1c(n(CCc3ccc(F)cc3)c3ccc(F)cc13)C2` ; human recombinant serotonin (5-Hydroxytryptamine) 5-HT2A receptor (Homo sapiens); reported inhibition at 1 µM was 81%
